System: Staphylococcus epidermidis
test.description: Antibacterial activity against Staphylococcus epidermidis ATCC 35984 assessed as inhibition of biofilm production after 6 hrs
Assay type: functional, RP62A
experimental.context: in the assay text read “after 18 hrs” for “after 6 hrs”
I'd appreciate it if you could supply Biofilm inhibitory concentration values for the items below.

The following compounds have reported results that may help.
Prompt: // lookup Biofilm inhibitory concentration for CCOC(=O)C1=C(c2ccccc2)N=c2s/c(=C\c3ccc(O)cc3)c(=O)n2C1c1ccc(OC)cc1 (stereo not drawn)
Response: >200 µM

Prompt: // lookup Biofilm inhibitory concentration for CCOC(=O)C1=C(c2ccccc2)N=c2s/c(=C\c3ccc(O)c(OC)c3)c(=O)n2C1c1ccc(OC)cc1 (stereo not drawn)
Response: >200 µM

Prompt: // lookup Biofilm inhibitory concentration for CCOC(=O)C1=C(c2ccccc2)N=c2s/c(=C\c3cccc(O)c3)c(=O)n2C1c1ccc(OC)cc1 (stereo not drawn)
Response: >200 µM

Prompt: // lookup Biofilm inhibitory concentration for CCOC(=O)C1=C(c2ccccc2)N=c2s/c(=C\c3ccc(-c4cccc(C(=O)OC)c4)o3)c(=O)n2C1c1ccc(OC)cc1 (stereo not drawn)
Response: >200 µM

Would you mind giving Biofilm inhibitory concentration for every compound in the list below?
1. CCOC(=O)C1=C(c2ccccc2)N=c2s/c(=C\c3ccc(-c4cccc(C(=O)OC)c4)o3)c(=O)n2C1c1ccccc1 (stereo not drawn)
2. COc1ccc(C/N=C2/S/C(=C\c3ccc(OCC(=O)O)cc3)C(=O)N2Cc2ccc(OC)cc2)cc1
3. Cc1ccccc1/N=C1/S/C(=C\c2ccc(-c3cccc(C(=O)O)c3)o2)C(=O)N1c1ccccc1C

Response:
>200 µM
25 µM
25 µM

Prompt: // lookup Biofilm inhibitory concentration for CCOC(=O)C1=C(c2ccccc2)N=c2s/c(=C\c3ccc(OCC(=O)O)cc3)c(=O)n2C1c1ccc2c(c1)OCO2 (stereo not drawn)
Response: 50 µM
